system: Oryctolagus cuniculus; assay: Neuromuscular blocking in rabbit model of propofol-induced anesthesia assessed as onset time at 272.7 nmol/kg by train-of-four response method; assay type: functional

compound	reading-unit	Time
COc1cc2c(cc1OC)[C@@H](Cc1cc(OC)c(OC)c(OC)c1)[N+](C)(CCCOC(=O)CC(C)(C)CC(=O)OCCC[N+]1(C)CCc3cc(OC)c(OC)cc3[C@H]1Cc1cc(OC)c(OC)c(OC)c1)CC2.[Cl-].[Cl-] (stereo partly drawn)	min	1.25
COc1cc2c(cc1OC)[C@@H](Cc1cc(OC)c(OC)c(OC)c1)[N+](C)(CCCOC(=O)Cc1ccc(CC(=O)OCCC[N+]3(C)CCc4cc(OC)c(OC)cc4[C@H]3Cc3cc(OC)c(OC)c(OC)c3)cc1)CC2.[Cl-].[Cl-] (stereo partly drawn)	min	0.92
CC[N+]1(CCCOC(=O)CC/C=C/CCC(=O)OCCC[N+]2(CC)CCc3cc(OC)c(OC)cc3[C@H]2Cc2cc(OC)c(OC)c(OC)c2)CCc2cc(OC)c(OC)cc2[C@H]1Cc1cc(OC)c(OC)c(OC)c1.[Cl-].[Cl-] (stereo partly drawn)	min	0.75

----------
tested on: Oryctolagus cuniculus; assay: Neuromuscular blocking in rabbit model of propofol-induced anesthesia assessed as onset time at 272.7 nmol/kg by train-of-four response method; format: functional
Please enter Fulfilled where Time is greater than or equal to 1 min, and Not fulfilled where it is lower.

compound	class-assignment
COc1cc2c(cc1OC)[C@@H](Cc1cc(OC)c(OC)c(OC)c1)[N+](CCCOC(=O)CC/C=C/CCC(=O)OCCC[N+]1(CC3CC3)CCc3cc(OC)c(OC)cc3[C@H]1Cc1cc(OC)c(OC)c(OC)c1)(CC1CC1)CC2.[Cl-].[Cl-] (stereo partly specified)	Fulfilled
COc1cc2c(cc1OC)[C@@H](Cc1cc(OC)c(OC)c(OC)c1)[N+](C)(CCC(=O)OCCCOC(=O)CC[N+]1(C)CCc3cc(OC)c(OC)cc3[C@H]1Cc1cc(OC)c(OC)c(OC)c1)CC2.O=S(=O)([O-])c1ccccc1.O=S(=O)([O-])c1ccccc1 (stereo partly specified)	Fulfilled
COc1cc2c(cc1OC)[C@@H](Cc1cc(OC)c(OC)c(OC)c1)[N+](C)(CCCOC(=O)CCCCC(=O)OCCC[N+]1(C)CCc3cc(OC)c(OC)cc3[C@H]1Cc1cc(OC)c(OC)c(OC)c1)CC2.[Cl-].[Cl-] (stereo partly specified)	Not fulfilled
C=CC[N@+]1(CCCOC(=O)CC/C=C/CCC(=O)OCCC[N@@+]2(CC=C)CCc3cc(OC)c(OC)cc3[C@H]2Cc2cc(OC)c(OC)c(OC)c2)CCc2cc(OC)c(OC)cc2[C@H]1Cc1cc(OC)c(OC)c(OC)c1.[Cl-].[Cl-]	Fulfilled

----------
tested on: Oryctolagus cuniculus; experiment: Neuromuscular blocking in rabbit model of propofol-induced anesthesia assessed as maximal blockade at 272.7 nmol/kg by train-of-four response method relative to control; format: functional
Each entry below lists one item and its recorded Emax at 0.2727 µmol/kg value.
reported-property: Emax at 0.2727 µmol/kg (%)

compound	numeric-result
COc1cc2c(cc1OC)[C@@H](Cc1cc(OC)c(OC)c(OC)c1)[N@@+](C)(CCCOC(=O)CC/C=C/CCC(=O)OCCC[N@@+]1(C)CCc3cc(OC)c(OC)cc3[C@H]1Cc1cc(OC)c(OC)c(OC)c1)CC2	0
COc1cc2c(cc1OC)[C@@H](Cc1cc(OC)c(OC)c(OC)c1)[N+](C)(CCC(=O)OCC#CCOC(=O)CC[N+]1(C)CCc3cc(OC)c(OC)cc3[C@H]1Cc1cc(OC)c(OC)c(OC)c1)CC2 (some centres undefined)	85
C=CC[N+]1(CCCOC(=O)CC/C=C/CCC(=O)OCCC[N+]2(CC=C)CCc3cc(OC)c(OC)cc3[C@H]2Cc2cc(OC)c(OC)c(OC)c2)CCc2cc(OC)c(OC)cc2[C@H]1Cc1cc(OC)c(OC)c(OC)c1 (some centres undefined)	92
COc1cc2c(cc1OC)[C@@H](Cc1cc(OC)c(OC)c(OC)c1)[N+](C)(CCC(=O)OCCCOC(=O)CC[N+]1(C)CCc3cc(OC)c(OC)cc3[C@H]1Cc1cc(OC)c(OC)c(OC)c1)CC2.O=S(=O)([O-])c1ccccc1.O=S(=O)([O-])c1ccccc1 (some centres undefined)	100
COc1cc2c(cc1OC)[C@@H](Cc1cc(OC)c(OC)c(OC)c1)[N+](C)(CCCOC(=O)c1ccccc1-c1ccccc1C(=O)OCCC[N+]1(C)CCc3cc(OC)c(OC)cc3[C@H]1Cc1cc(OC)c(OC)c(OC)c1)CC2 (some centres undefined)	0
COc1cc2c(cc1OC)[C@@H](Cc1cc(OC)c(OC)c(OC)c1)[N+](C)(CCCOC(=O)CCCC(=O)OCCC[N+]1(C)CCc3cc(OC)c(OC)cc3[C@H]1Cc1cc(OC)c(OC)c(OC)c1)CC2.[Cl-].[Cl-] (some centres undefined)	100
COc1cc2c(cc1OC)[C@@H](Cc1cc(OC)c(OC)c(OC)c1)[N+](C)(CCCOC(=O)Cc1ccc(CC(=O)OCCC[N+]3(C)CCc4cc(OC)c(OC)cc4[C@H]3Cc3cc(OC)c(OC)c(OC)c3)cc1)CC2.[Cl-].[Cl-] (some centres undefined)	100
CC[N@+]1(CCCOC(=O)CC/C=C/CCC(=O)OCCC[N@@+]2(CC)CCc3cc(OC)c(OC)cc3[C@H]2Cc2cc(OC)c(OC)c(OC)c2)CCc2cc(OC)c(OC)cc2[C@H]1Cc1cc(OC)c(OC)c(OC)c1.[Cl-].[Cl-]	100
COc1cc2c(cc1OC)[C@@H](Cc1cc(OC)c(OC)c(OC)c1)[N@+](CCCOC(=O)CC/C=C/CCC(=O)OCCC[N@@+]1(CC3CCC3)CCc3cc(OC)c(OC)cc3[C@H]1Cc1cc(OC)c(OC)c(OC)c1)(CC1CCC1)CC2.[Cl-].[Cl-]	100

----------
test system: Oryctolagus cuniculus; experiment: Neuromuscular blocking in rabbit model of propofol-induced anesthesia assessed as onset time at 27.27 nmol/kg by train-of-four response method; assay type: functional
Cut-off 2 min on Time, inclusive. At or above means t; below means f.

compound	class-assignment
COc1cc2c(cc1OC)[C@@H](Cc1cc(OC)c(OC)c(OC)c1)[N+](C)(CCCOC(=O)CCCCC(=O)OCCC[N+]1(C)CCc3cc(OC)c(OC)cc3[C@H]1Cc1cc(OC)c(OC)c(OC)c1)CC2.[Cl-].[Cl-] (stereo not given in full)	t
COc1cc2c(cc1OC)[C@@H](Cc1cc(OC)c(OC)c(OC)c1)[N+](C)(CCCOC(=O)CCCC(=O)OCCC[N+]1(C)CCc3cc(OC)c(OC)cc3[C@H]1Cc1cc(OC)c(OC)c(OC)c1)CC2.[Cl-].[Cl-] (stereo not given in full)	t
COc1cc2c(cc1OC)[C@@H](Cc1cc(OC)c(OC)c(OC)c1)[N@@+](C)(CCCOC(=O)CC/C=C/CCC(=O)OCCC[N@+]1(C)CCc3cc(OC)c(OC)cc3[C@H]1Cc1cc(OC)c(OC)c(OC)c1)CC2.[Cl-].[Cl-] (mixture of isomers)	t
COc1cc2c(cc1OC)[C@@H](Cc1cc(OC)c(OC)c(OC)c1)[N+](C)(CCCOC(=O)CC/C=C/CCC(=O)OCCC[N+]1(C)CCc3cc(OC)c(OC)cc3[C@H]1Cc1cc(OC)c(OC)c(OC)c1)CC2.[Cl-].[Cl-] (stereo not given in full) [MIVACURIUM CHLORIDE]	f
COc1cc2c(cc1OC)[C@@H](Cc1cc(OC)c(OC)c(OC)c1)[N@+](C)(CCCOC(=O)CC/C=C/CCC(=O)OCCC[N@+]1(C)CCc3cc(OC)c(OC)cc3[C@H]1Cc1cc(OC)c(OC)c(OC)c1)CC2.[Cl-].[Cl-]	f

----------
tested on: Oryctolagus cuniculus; assay: Neuromuscular blocking in rabbit model of propofol-induced anesthesia assessed as maximal blockade at 272.7 nmol/kg by train-of-four response method relative to control; assay type: functional

molecule	target-entity	Emax at 0.2727 µmol/kg
COc1cc2c(cc1OC)[C@@H](Cc1cc(OC)c(OC)c(OC)c1)[N+](CCCOC(=O)CC/C=C/CCC(=O)OCCC[N+]1(CC3CC3)CCc3cc(OC)c(OC)cc3[C@H]1Cc1cc(OC)c(OC)c(OC)c1)(CC1CC1)CC2.[Cl-].[Cl-] (stereo partly drawn)	Oryctolagus cuniculus	100%
COc1cc2c(cc1OC)[C@@H](Cc1cc(OC)c(OC)c(OC)c1)[N@+](C)(CCCOC(=O)CC/C=C/CCC(=O)OCCC[N@+]1(C)CCc3cc(OC)c(OC)cc3[C@H]1Cc1cc(OC)c(OC)c(OC)c1)CC2.[Cl-].[Cl-]	Oryctolagus cuniculus	100%
COc1cc2c(cc1OC)[C@@H](Cc1cc(OC)c(OC)c(OC)c1)[N+](C)(CCC(=O)OC/C=C\COC(=O)CC[N+]1(C)CCc3cc(OC)c(OC)cc3[C@H]1Cc1cc(OC)c(OC)c(OC)c1)CC2.O=S(=O)([O-])c1ccccc1.O=S(=O)([O-])c1ccccc1 (stereo partly drawn)	Oryctolagus cuniculus	100%
